Below is a list of entries, each paired with its recorded pIC50 value.
- measured_target: MMP-1 (Homo sapiens)
- Sequence (P03956 100-469): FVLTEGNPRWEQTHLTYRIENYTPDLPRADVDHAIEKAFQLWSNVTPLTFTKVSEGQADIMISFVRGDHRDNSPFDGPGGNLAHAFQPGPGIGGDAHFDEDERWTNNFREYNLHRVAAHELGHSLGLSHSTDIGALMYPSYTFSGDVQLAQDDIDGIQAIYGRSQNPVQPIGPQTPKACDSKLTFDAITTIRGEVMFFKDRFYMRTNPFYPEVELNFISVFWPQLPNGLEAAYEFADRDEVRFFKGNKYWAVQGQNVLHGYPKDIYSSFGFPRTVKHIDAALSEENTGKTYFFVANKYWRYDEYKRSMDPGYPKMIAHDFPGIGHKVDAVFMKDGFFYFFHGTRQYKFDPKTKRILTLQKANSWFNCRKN
- experimental_details: MMP-1 inhibition (thiopeptide or fluorescent peptide substrate)
In simple prose, pIC50 is minus the logarithm base ten of a concentration in moles per litre.

Examples from the recorded data:
• CC#CCOc1ccc([S+]([O-])C(CCCCNC(=O)CNC(=O)c2ccccc2CCc2ccccc2)C(=O)NO)cc1 (stereo not drawn) = 5.41
• CC#CCOc1ccc(S(=O)(=O)C(CCc2ccc(OCCN3CCCCC3)cc2)C(=O)NO)cc1 (stereo not drawn) = 5.00
• CC#CCOc1ccc([S+]([O-])C(CCCCNC(=O)CNC(=O)c2cnc3ccccc3c2)C(=O)NO)cc1 (stereo not drawn) = 5.40

Ask | Would you mind telling me what pIC50 value was observed for CC#CCOc1ccc([S+]([O-])C(C(=O)NO)C(C)C)cc1 (stereo not drawn) ?
Reply | 5.19

Ask | Would you mind telling me what pIC50 value was observed for CC#CCOc1ccc(OCC(=O)NO)cc1 ?
Reply | 5.00

Ask | Would you mind telling me what pIC50 value was observed for CC#CCOc1ccc([S+]([O-])C(CCCCNC(=O)C2c3ccccc3Oc3ccccc32)C(=O)NO)cc1 (stereo not drawn) ?
Reply | 5.70

Ask | Would you mind telling me what pIC50 value was observed for CC#CCOc1ccc([S@@+]([O-])[C@@H](CCCCCC)C(=O)NO)cc1 ?
Reply | 5.49
